Hello, the source for this data is patent US20170240628A1, in case you need it.

Examples of binders with documented pEC50 follow.
Target: T1, recombinant murine midkine (muMK) (murine, UniProt P12025 23-140)
T1 construct: also called murine MK; Murine MK
T1 sequence (looked up): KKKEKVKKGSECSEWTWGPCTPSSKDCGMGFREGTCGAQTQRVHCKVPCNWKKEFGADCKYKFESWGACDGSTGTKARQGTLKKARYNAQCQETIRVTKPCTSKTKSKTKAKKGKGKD
Test: ELISA, plate coated with muMK
pEC50: −log10 of the molar value.
MEASUREMENT KIND: pEC50

[
  {
    "BINDER": "IP14-H6L8 (antibody, V domains shown, also called hIP14-H6L8; Hv6 Lv8) VH: QVQLVQSGGGLVKPGHSLRLSCAASGQSFSSYWMNWVRQAPGKGLEWIGMIHPSDSETILNQKFKDKATLSVDIAKNSAYLQMNSLRAEDTAVYYCSSWSAKRGDFWGQGTLVTVSS VL: DIVLTQSPATLSLSPGERATLSCRASESISNNLHWYQQKPHQAPRLLIYYASQSISGVPARFSGSGSGTDFTLTISSVEPEDFAVYYCQQSNSWPLTFGQGTKVEIKR",
    "MEASURED NUMBER": 10.04
  },
  {
    "BINDER": "IP14-H3L2 (antibody, V domains shown, also called Hv3 Lv2) VH: QVQLVQSGAEVKKPGASVKVSCKASGQSFSSYWMNWVRQAPGQGLEWMGMIHPSDSETILNQKFKDKVTMTRDTSTSTVYMELSSLRSEDTAVYYCARWSAKRGDFWGQGTLVTVSS VL: EIVLTQSPATLSLSPGERATLSCRASESISNNLHWYQQKPGQAPRLLIKYASQSISGIPARFSGSGPGTDFTLTISSVEPEDFAVYYCQQSNSWPLTFGGGTKLEIKR",
    "MEASURED NUMBER": 10.00
  },
  {
    "BINDER": "IP14-H5L4 (antibody, V domains shown, also called Hv5 Lv4) VH: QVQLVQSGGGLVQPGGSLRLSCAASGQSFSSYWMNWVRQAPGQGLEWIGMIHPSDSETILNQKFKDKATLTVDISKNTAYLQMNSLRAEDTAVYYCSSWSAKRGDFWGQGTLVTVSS VL: EIVLTQSPDFQSVTPKEKVNITCRASESISNNLHWYQQKPHQSPKLLIYYASQSISGVPSRFSGSGSGTDFNLTINSVEAEDAATYYCQQSNSWPLTFGGGTKLEIKR",
    "MEASURED NUMBER": 10.29
  },
  {
    "BINDER": "IP14-H6L7 (antibody, V domains shown, also called Hv6 Lv7) VH: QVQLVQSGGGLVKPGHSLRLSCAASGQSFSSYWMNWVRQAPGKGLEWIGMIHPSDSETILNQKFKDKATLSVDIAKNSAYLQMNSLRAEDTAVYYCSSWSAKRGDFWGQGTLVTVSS VL: DIVLTQSPATLSLSPGERANLSCRASESISNNLHWYQQKPHQAPRLLIYYASQSISGVPARFSGSGSGTDFNLTISSVEPEDFAVYYCQQSNSWPLTFGQGTKVEIKR",
    "MEASURED NUMBER": 10.29
  },
  {
    "BINDER": "IP14-H5L2 (antibody, V domains shown, also called Hv5 Lv2) VH: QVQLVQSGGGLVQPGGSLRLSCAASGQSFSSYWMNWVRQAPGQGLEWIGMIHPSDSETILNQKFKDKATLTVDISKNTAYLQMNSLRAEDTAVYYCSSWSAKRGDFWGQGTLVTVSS VL: EIVLTQSPATLSLSPGERATLSCRASESISNNLHWYQQKPGQAPRLLIKYASQSISGIPARFSGSGPGTDFTLTISSVEPEDFAVYYCQQSNSWPLTFGGGTKLEIKR",
    "MEASURED NUMBER": 10.27
  },
  {
    "BINDER": "IP14-H2L2 (antibody, V domains shown, also called Hv2 Lv2) VH: QVQLVQSGAEVKKPGASVKVSCKASGQSFSSYWMNWVRQAPGQGLEWIGMIHPSDSETILNQKFKDKATLTVDISTSTAYMELSSLRSEDTAVYYCSSWSAKRGDFWGQGTLVTVSS VL: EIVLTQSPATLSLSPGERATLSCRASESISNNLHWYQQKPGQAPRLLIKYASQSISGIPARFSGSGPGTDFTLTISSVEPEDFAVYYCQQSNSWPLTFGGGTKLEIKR",
    "MEASURED NUMBER": 10.06
  },
  {
    "BINDER": "IP14-H2L1 (antibody, V domains shown, also called Hv2 Lv1) VH: QVQLVQSGAEVKKPGASVKVSCKASGQSFSSYWMNWVRQAPGQGLEWIGMIHPSDSETILNQKFKDKATLTVDISTSTAYMELSSLRSEDTAVYYCSSWSAKRGDFWGQGTLVTVSS VL: EIVLTQSPATLSLSPGERANLSCRASESISNNLHWYQQKPHQAPRLLIKYASQSISGIPARFSGSGPGTDFNLTISSVEPEDFAVYYCQQSNSWPLTFGGGTKLEIKR",
    "MEASURED NUMBER": 10.05
  },
  {
    "BINDER": "IP14-H6L6 (antibody, V domains shown, also called Hv6 Lv6) VH: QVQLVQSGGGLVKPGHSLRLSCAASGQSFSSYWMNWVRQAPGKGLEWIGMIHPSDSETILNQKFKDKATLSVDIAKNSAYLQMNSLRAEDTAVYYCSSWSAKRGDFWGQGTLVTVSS VL: EIVLTQSPSTLSASVGDRVNITCRASESISNNLHWYQQKPHKAPKLLIYYASQSISGVPSRFSGSGSGTEFNLTISSVQPDDFATYYCQQSNSWPLTFGQGTKVEIKR",
    "MEASURED NUMBER": 10.32
  },
  {
    "BINDER": "IP14-H5L6 (antibody, V domains shown, also called Hv5 Lv6) VH: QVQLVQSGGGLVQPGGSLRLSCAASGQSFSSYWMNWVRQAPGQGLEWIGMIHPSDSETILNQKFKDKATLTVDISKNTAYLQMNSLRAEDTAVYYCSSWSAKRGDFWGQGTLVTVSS VL: EIVLTQSPSTLSASVGDRVNITCRASESISNNLHWYQQKPHKAPKLLIYYASQSISGVPSRFSGSGSGTEFNLTISSVQPDDFATYYCQQSNSWPLTFGQGTKVEIKR",
    "MEASURED NUMBER": 10.36
  },
  {
    "BINDER": "IP14-H5L3 (antibody, V domains shown, also called hIP14-H5L3; Hv5 Lv3) VH: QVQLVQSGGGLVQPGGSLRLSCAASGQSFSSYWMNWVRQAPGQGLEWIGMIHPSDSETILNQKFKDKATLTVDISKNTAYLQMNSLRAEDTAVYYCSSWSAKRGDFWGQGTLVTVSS VL: DIVLTQSPATLSLSPGERATLSCRASESISNNLHWYQQKPGQAPRLLIYYASQSISGIPARFSGSGPGTDFTLTISSLEPEDFAVYYCQQSNSWPLTFGGGTKLEIKR",
    "MEASURED NUMBER": 10.30
  }
]
